Source: ChEMBL document CHEMBL1201862

For each of the molecules below, state its GI50.
# Test system: OVCAR-4
# test method notes: NCI tumour cell line growth inhibition, 48 h
Activity calls are given as the source filed them. No stated cut-off is given here; in the data, active = GI50 up to about 1.1 µM and inactive = higher. Square brackets hold non-standard residues; d marks the D form. Peptide text beside a SMILES is read from it. * marks the point of attachment. Tyr(3-Br) = N[C@@H](Cc1ccc(O)c(Br)c1)C(=O)O; Boc = CC(C)(C)OC(=O)*

Enquiry: Output GI50 of CSc1nc(-c2ccccc2)[nH]c(=O)n1
Return: > 100 µM (inactive)

Enquiry: Identify measured GI50 associated with COc1ccc(N(CN2C(=O)CCC2C(=O)O)C(C)=O)cc1 (stereo unspecified)
Return: > 100 µM (inactive)

Enquiry: Report GI50 for NNC(=O)N/N=C1/C(=O)N(c2ccc(Cl)c(Cl)c2)C(=O)C(=O)C1c1nc2ccccc2o1 (stereo unspecified)
Return: > 100 µM (inactive)

Enquiry: Give GI50 for COc1cc(/C=C2/SC(c3ccccc3)N(c3cc(Cl)ccc3Cl)C2=O)cc(OC)c1OC (stereo unspecified)
Return: 49.8 µM (inactive)

Enquiry: Note down GI50 recorded for CC1CCC2C(C)C(=O)OC3OC4(C)CCC1C32OO4 (stereo unspecified)
Return: > 72.8 µM (inactive)

Enquiry: In one line, give reported GI50 of the entry C/C(=C1/N=C(c2ccccc2)OC1=O)c1ccc(C)cc1 .
Return: > 100 µM (inactive)

Enquiry: Please give the documented GI50 of O=Cc1ccc2c(c1)CC1(C2)Cc2ccc(C=O)cc2C1
Return: 12.4 µM (inactive)

Enquiry: Specify GI50 for NC(=O)CCC(N=C(N)c1csc(C2OC(CO)C(O)C2O)n1)C(=O)O (stereo unspecified) and stop.
Return: > 100 µM (inactive)

Enquiry: Consider the molecule Oc1nc(-c2cccc(F)c2)nc2ccccc12 . State its measured GI50.
Return: 25 µM (inactive)

Enquiry: Look up and report measured GI50 for this entry: C=CCOC(=O)/C(=C\c1ccc(OC)c(OC)c1)c1ccc(OC)c(OC)c1
Return: > 10 µM (inactive)

Enquiry: Annotate the molecule N/C(=N\O)N/N=C\c1c(O)cc(O)cc1O with its measured GI50.
Return: > 68.4 µM (inactive)

Enquiry: Write down GI50 measured for item NCC(=O)OCN1C(=O)C2C3C=CC(C2C1=O)C1C2C(=O)N(COC(=O)CN)C(=O)C2C31 (stereo unspecified)
Return: 26.1 µM (inactive)

Enquiry: Consider the molecule O=C1/C(=C/c2cccc([N+](=O)[O-])c2)COc2ccccc21 . State its measured GI50.
Return: 2.49 µM (inactive)

Enquiry: Fill in GI50 for record COc1cc(C(=O)CC2(O)C(=O)Nc3c(Cl)cc(Cl)cc32)ccc1O (stereo unspecified)
Return: 60.8 µM (inactive)

Enquiry: Please report the measured GI50 for NCCCN1CCN(CCCNc2ccc3ncn4c5ccccc5c(=O)c2c34)CC1
Return: 0.728 µM (active)

Enquiry: Look up GI50 of COc1cc(Br)cc2nc(-c3cccs3)oc12 and report it.
Return: > 26.9 µM (inactive)

Enquiry: Tell me measured GI50 for COc1cccc(NC(=O)CC(=O)N2N=C(C)C(/N=N/c3ccc(S(=O)(=O)CCOS(=O)(=O)O)cc3)C2=O)c1 (stereo unspecified) please.
Return: 1.58 µM (inactive)

Enquiry: Input COC(=O)[C@H](Cc1ccc(O)c(Br)c1)NC(=O)[C@H](Cc1ccc(O)cc1)NC(=O)OC(C)(C)C (Boc-Tyr-[Tyr(3-Br)]-OMe) , output reported GI50.
Return: 29.8 µM (inactive)

Enquiry: For the molecule O=C(NN1C(=O)CSC1c1ccco1)c1ccncc1 (stereo unspecified) , give its measured GI50 value.
Return: > 100 µM (inactive)

Enquiry: Please give the documented GI50 of O=C1c2ccccc2OCC1/C=N/O (stereo unspecified)
Return: > 62.5 µM (inactive)

Enquiry: Answer with reported GI50 of CC1(C)S[C@@H]2[C@H](N3C(=O)c4ccccc4C3=O)CN2[C@H]1NC(=O)N[C@@H]1N2C[C@@H](N3C(=O)c4ccccc4C3=O)[C@H]2SC1(C)C
Return: > 100 µM (inactive)
